Parameter Bliss excess: see the listing below.
Tested on: CCRF-CEM (T-Lymphoblastic Leukemia);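 also: after 72 h of two-drug dosing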
ASSAY: Bliss excess, mean over the matrix (fraction); higher = more synergy
Give a plain numeric answer without units written out.

// solved cases for Bliss excess follow
With CCRF-CEM (T-Lymphoblastic Leukemia) as the test system, provide measured Bliss excess for this compound: CN(CCO)CC[C@H](CSc1ccccc1)Nc1ccc(S(=O)(=O)NC(=O)c2ccc(N3CCC([C@@H](O)c4ccccc4-c4ccc(Cl)cc4)CC3)cc2)cc1S(=O)(=O)C(F)(F)F [AZD4320] + C1CN(CCC1(C(=O)N[C@@H](CCO)C2=CC=C(C=C2)Cl)N)C3=NC=NC4=C3C=CN4 [Capivasertib] (first compound max 1 µM, 7x7, partner max 3 µM)
0.0753

Retrieve Bliss excess on CCRF-CEM (T-Lymphoblastic Leukemia); query CN(CCO)CC[C@H](CSc1ccccc1)Nc1ccc(S(=O)(=O)NC(=O)c2ccc(N3CCC([C@@H](O)c4ccccc4-c4ccc(Cl)cc4)CC3)cc2)cc1S(=O)(=O)C(F)(F)F [AZD4320] + Cn1cnc2c(F)c(Nc3ccc(Br)cc3Cl)c(C(=O)NOCCO)cc21 [Selumetinib] (first compound max 1 µM, 7x7, partner max 3 µM)
0.0099

Answer with Bliss excess of Cc1c2c(nn1C)CSCc1cc(n(C)n1)CSc1cc(c3ccccc3c1)OCCCc1c(C(=O)O)n(C)c3c-2c(Cl)ccc13 [AZD5991] + CC(=O)O[C@H]1C(=O)[C@@]2(C)[C@H]([C@H](OC(=O)c3ccccc3)[C@]3(O)C[C@H](OC(=O)[C@H](O)[C@@H](NC(=O)c4ccccc4)c4ccccc4)C(C)=C1C3(C)C)[C@]1(OC(C)=O)CO[C@@H]1C[C@@H]2O [Paclitaxel] (first compound max 1 µM, 7x7, partner max 3 µM) measured for CCRF-CEM (T-Lymphoblastic Leukemia).
-0.0339

Okay, now this compound:
Tell me its Bliss excess on CCRF-CEM (T-Lymphoblastic Leukemia): CS(=O)(=O)CCNCc1ccc(-c2ccc3ncnc(Nc4ccc(OCc5cccc(F)c5)c(Cl)c4)c3c2)o1 [Lapatinib] + NC1(c2ccc(-c3nc4ccn5c(=O)[nH]nc5c4cc3-c3ccccc3)cc2)CCC1 [MK-2206] (first compound max 10 µM, 7x7, partner max 10 µM)
0.026

The measurements presented in this section are drawn from the supplement of paper PMC11061612.
